target desc: p75 receptor (truncated form, residues 1-222) (Homo sapiens, UniProt P08138)
Construct: truncated form (residues 1-222, molecular weight=56 KDa) of the p75 receptor; biotin (chemical label, immobilised on streptavidin); (also commercially available from Austral Biologicals, Inc., San Diego, Calif.)
Sequence (P08138 29-250): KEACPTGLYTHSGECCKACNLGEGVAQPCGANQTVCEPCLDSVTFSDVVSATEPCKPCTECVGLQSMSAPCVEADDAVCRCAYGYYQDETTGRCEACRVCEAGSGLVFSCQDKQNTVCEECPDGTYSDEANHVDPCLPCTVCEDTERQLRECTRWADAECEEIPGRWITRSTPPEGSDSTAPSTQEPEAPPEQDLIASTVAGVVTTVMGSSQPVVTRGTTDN
experiment notes: Inhibition of 125I-NGF binding to the NGF p75 receptor
test conditions: 2 nM 125I-NGF, 2 hours at room temperature; read-out: Inhibition of 125I-NGF Binding to p 75 (IC50)
measured metric: IC50 (nM)

COc1ccc2nc3ccc(C(=O)O)nn3c(=O)c2c1
1500
Cc1ccc(C(=O)Nc2ccc3nc4ccc(C(=O)O)nn4c(=O)c3c2)cc1
238
O=C(O)c1ccc2nc3ccc(C(=O)O)nn3c(=O)c2c1
2190
Cc1ccc2c(=O)n3nc(C(=O)O)ccc3nc2c1
4900
O=C(Nc1ccc2nc3ccc(C(=O)O)nn3c(=O)c2c1)c1ccccc1
67

(a) O=C(O)c1ccc2nc3ccc(Cl)cc3c(=O)n2n1
(b) Cc1ccc2nc3ccc(C(=O)O)nn3c(=O)c2c1
Q: Choose between a and b : whose measured IC50 value is numerically larger? Write down the label attached to your selection.
Result: a
(a: 4000 nM, b: 1800 nM)
